Kindly state Potency for each of the entries shown.
Tested on: dog and primate chronic carcinogenicity bioassays, TD50
experimentalDetails: DSSTox (CPDBAS) Carcinogenic Potency Database Summary Dog & Primates Bioassay Results

Record lookup: for dog and primate chronic carcinogenicity bioassays, TD50, what Potency belongs to CCCN(CCC)N=O ?
0.0121 mg/kg/day

Record lookup: for dog and primate chronic carcinogenicity bioassays, TD50, what Potency belongs to Nc1ccc2ccccc2c1 ?
5.74 mg/kg/day

Record lookup: for dog and primate chronic carcinogenicity bioassays, TD50, what Potency belongs to CCN(CC)N=O ?
0.0536 mg/kg/day

Record lookup: for dog and primate chronic carcinogenicity bioassays, TD50, what Potency belongs to C/[N+]([O-])=N/CO[C@@H]1O[C@H](CO)[C@@H](O)[C@H](O)[C@H]1O ?
0.0657 mg/kg/day

Record lookup: for dog and primate chronic carcinogenicity bioassays, TD50, what Potency belongs to CCOC(N)=O ?
65.2 mg/kg/day

Record lookup: for dog and primate chronic carcinogenicity bioassays, TD50, what Potency belongs to CN(N=O)C(N)=O ?
7.18 mg/kg/day

Record lookup: for dog and primate chronic carcinogenicity bioassays, TD50, what Potency belongs to COc1cc2c(c3oc(=O)c4c(c13)CCC4=O)C1C=COC1O2 (centres undefined) ?
0.0082 mg/kg/day

Record lookup: for dog and primate chronic carcinogenicity bioassays, TD50, what Potency belongs to CNNCc1ccc(C(=O)NC(C)C)cc1 ?
4.21 mg/kg/day

Record lookup: for dog and primate chronic carcinogenicity bioassays, TD50, what Potency belongs to O=NN1CCCCC1 ?
2.76 mg/kg/day
